Record form. Attribute: cAMP EC50. Fill in for each entry.
- TESTED TARGET: human glucagon receptor (human) (UniProt P47871)
- METHOD: cell-based or functional assay

cAMP EC50 measured on YXEGTXTSDVXIXLDXKAQXKFIXXLIEGGPSSGAPPPS (Y-Aib-EGT-αMeF(2F)-TSDV-Aib-I-αMeL-LD-Orn-K((2-[2-(2-Amino-ethoxy)-ethoxy]-acetyl)2-(γ-Glu)-CO-(CH2)12-CO2H)AQ-Aib-K((2-[2-(2-Amino-ethoxy)-ethoxy]-acetyl)2-(γ-Glu)-CO-(CH2)12-CO2H)FI-(D-Glu)-αMeY-LIEGGPSSGAPPPS-NH2) [Example 318] = > 9.95 µM

cAMP EC50 measured on YXEGTXTSDXXIXLDXKAQXEXIXXLIKGGPSSGAPPPS (Y-Aib-EGT-αMeF(2F)-TSD-4Pal-Aib-I-αMeL-LD-Orn-K((2-[2-(2-Amino-ethoxy)-ethoxy]-acetyl)3-(γ-Glu)-CO-(CH2)10-CH3)AQ-Aib-E-αMeF-I-(D-Glu)-αMeY-LIK((2-[2-(2-Amino-ethoxy)-ethoxy]-acetyl)3-(γ-Glu)-CO-(CH2)10-CH3)GGPSSGAPPPS-NH2) [Example 438] = > 9.95 µM

cAMP EC50 measured on YXEGTXTSDXXIXLDXKAQXKFIXXLIEGGPSSGAPPPS (Y-Aib-EGT-αMeF(2F)-TSD-4Pal-Aib-I-αMeL-LD-Orn-K((2-[2-(2-Amino-ethoxy)-ethoxy]-acetyl)2-(γ-Glu)-CO-(CH2)10-CH3)AQ-Aib-K((2-[2-(2-Amino-ethoxy)-ethoxy]-acetyl)2-(γ-Glu)-CO-(CH2)10-CH3)FI-(D-Glu)-αMeY-LIEGGPSSGAPPPS-NH2) [Example 322] = > 9.95 µM

cAMP EC50 measured on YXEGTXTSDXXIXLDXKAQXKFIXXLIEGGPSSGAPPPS (Y-Aib-EGT-αMeF(2F)-TSD-4Pal-Aib-I-αMeL-LD-Orn-K((2-[2-(2-Amino-ethoxy)-ethoxy]-acetyl)-(γ-Glu)-CO-(CH2)10-CH3)AQ-Aib-K((2-[2-(2-Amino-ethoxy)-ethoxy]-acetyl)-(γ-Glu)-CO-(CH2)10-CH3)FI-(D-Glu)-αMeY-LIEGGPSSGAPPPS-NH2) [Example 426] = > 9.95 µM

cAMP EC50 measured on YXEGTXTSDKXIXLDXKAQXXFIXXLIEGGPSSGAPPPS (Y-Aib-EGT-αMeF(2F)-TSDK((2-[2-(2-Amino-ethoxy)-ethoxy]-acetyl)2-(γ-Glu)-CO-(CH2)10-CH3)-Aib-I-αMeL-LD-Orn-K((2-[2-(2-Amino-ethoxy)-ethoxy]-acetyl)2-(γ-Glu)-CO-(CH2)10-CH3)AQ-Aib-Orn-FI-(D-Glu)-αMeY-LIEGGPSSGAPPPS-NH2) [Example 417] = > 9.95 µM

cAMP EC50 measured on YXEGTXTSDKXIXLDXKAQXEFIXXLIEGGPSSGAPPPS (Y-Aib-EGT-αMeF(2F)-TSDK((2-[2-(2-Amino-ethoxy)-ethoxy]-acetyl)-(γ-Glu)-CO-(CH2)10-CH3)-Aib-I-αMeL-LD-Orn-K((2-[2-(2-Amino-ethoxy)-ethoxy]-acetyl)-(γ-Glu)-CO-(CH2)10-CH3)AQ-Aib-EFI-(D-Glu)-αMeY-LIEGGPSSGAPPPS-NH2) [Example 425] = > 9.95 µM
